SYSTEM_UNDER_TEST: HDAC1 (Homo sapiens)
Sequence (Q13547 whole entry, species assumed): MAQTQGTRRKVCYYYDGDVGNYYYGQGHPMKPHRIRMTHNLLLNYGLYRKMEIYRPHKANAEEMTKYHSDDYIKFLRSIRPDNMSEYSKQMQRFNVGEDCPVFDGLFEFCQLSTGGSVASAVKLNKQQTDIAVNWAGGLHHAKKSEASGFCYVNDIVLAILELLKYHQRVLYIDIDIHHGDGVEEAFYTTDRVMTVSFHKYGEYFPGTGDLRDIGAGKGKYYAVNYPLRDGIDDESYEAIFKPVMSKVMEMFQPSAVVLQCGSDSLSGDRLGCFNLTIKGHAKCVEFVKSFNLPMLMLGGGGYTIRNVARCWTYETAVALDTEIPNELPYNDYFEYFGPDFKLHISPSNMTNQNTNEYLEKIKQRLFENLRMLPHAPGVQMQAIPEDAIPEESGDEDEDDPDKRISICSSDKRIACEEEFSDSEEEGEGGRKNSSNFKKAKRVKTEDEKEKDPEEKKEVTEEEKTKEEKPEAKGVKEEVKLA
METHOD: HDAC biochemical activity measurement (fluorescent substrate deacetylation);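 further: fluorogenic acetyl-lysine substrate (20 µM) deacetylated by HDAC1, then developer releases fluorophore read at 360 nm excitation and 460 nm emission, inhibitor incubated 30 min at 37 °C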
PROTOCOL_CONDITIONS: Table 3, column C; read-out: IC50 HDAC1, C (six-membered ring with substituents)
MEASUREMENT_TYPE: IC50 (nM)
Express the result in nM but write the number alone.

See these solved cases before continuing.
COMPOUND | RECORDED_MEASUREMENT
C/C=C1\NC(=O)c2nc(ccc2F)CNC(=O)C[C@@H](/C=C/CCSC(=O)CCCCCCC)OC(=O)[C@H](C(C)C)NC1=O [Compound 30] | 12
C/C=C1\NC(=O)c2cc(F)cc(n2)CNC(=O)C[C@@H](/C=C/CCSC(=O)CCCCCCC)OC(=O)[C@H](Cc2ccccc2)NC1=O [Compound 70] | 33
C/C=C1\NC(=O)c2cc(F)cc(n2)CNC(=O)C[C@@H](/C=C/CCSC(=O)CCCC)OC(=O)[C@H](C(C)C)NC1=O [Compound 40] | 43
C/C=C1\NC(=O)c2cc(F)cc(n2)CNC(=O)C[C@@H](/C=C/CCSC(C)=O)OC(=O)[C@H](C(C)C)NC1=O [Compound 49] | 16
C/C=C1\NC(=O)c2cc(F)cc(n2)CNC(=O)C[C@@H](/C=C/CCSC(C)=O)OC(=O)[C@H](C)NC1=O [Compound 64] | 24

// switching to the query compound
Query the reported IC50 for HDAC1 (Homo sapiens); item: C/C=C1\NC(=O)c2nc(ccc2F)CNC(=O)C[C@@H](/C=C/CCSC(C)=O)OC(=O)[C@H](Cc2ccc(O)cc2)NC1=O [Compound 81]
37
